# Test system: SK-MEL-5
# Assay protocol: NCI tumour cell line growth inhibition, 48 h
Active and inactive are the calls of the source. Rule as the data show it: active = GI50 up to about 1.1 µM and inactive = higher.
Reported metric: GI50

Compound: N#CC(C#N)=C1C(C#N)=C(N)NC12OCCO2
Measured target: SK-MEL-5
Reported metric: GI50
Meas value: > 100 µM (inactive)

Compound: COC1(OC)C(N(C)C)=C(Cl)C(=O)/C1=C/C=O
Measured target: SK-MEL-5
Reported metric: GI50
Meas value: > 100 µM (inactive)

Compound: COC(=O)C1[C@@H](C(=O)OC)C12C=Cc1ccccc1C=C2 (stereo partly specified)
Measured target: SK-MEL-5
Reported metric: GI50
Meas value: > 100 µM (inactive)

Compound: O=c1cc(NCc2ccncc2)[nH]c(=O)[nH]1
Measured target: SK-MEL-5
Reported metric: GI50
Meas value: > 100 µM (inactive)

Challenge: Given the compound C=C1C(=O)OC2C1CCC(=C)C1CC(O)C(=C)C12 (stereo unspecified) , what is its reported GI50?
Response given: 14.3 µM (inactive)

Challenge: Given the compound C1CSCCSCCCSCCSCCCSCCSCCCSCCSC1 , what is its reported GI50?
Response given: > 100 µM (inactive)

Challenge: Given the compound O=C(/C=C/c1ccccc1)Oc1cccc(O)c1 , what is its reported GI50?
Response given: 37.5 µM (inactive)

---

# Test system: EKVX
# Assay protocol: NCI tumour cell line growth inhibition, 48 h
Calls of active or inactive are those of the source. Cut-off read from the data, not from the text of the source: active = GI50 up to about 1.1 µM and inactive = higher.
Measured GI50 of individual entries

// solved cases for GI50 follow
Compound: C[C@]12CC[C@H](OC(=O)Cc3ccc(N(CCCl)CCCl)cc3)CC1=CC[C@@H]1[C@@H]2CC[C@]2(C)C(=O)CC[C@@H]12
GI50: > 100 µM (inactive)
--
Compound: COc1cc(C=C2C(C)=NN(c3cccc(Cl)c3)C23C(Cl)C(=O)N3c2nc3ccccc3s2)ccc1O (stereo not given)
GI50: 31.4 µM (inactive)
--
Compound: C#C[C@H](CCCC)OC(=O)N[C@H](C)c1ccccc1
GI50: 50.6 µM (inactive)
--
Compound: CC(=O)N1C2=CCCC2(C)c2ccccc21 (stereo not given)
GI50: > 100 µM (inactive)
--
Compound: CCOC(=N)n1c(=O)n(C2=NCCN2)c2ccccc21
GI50: > 100 µM (inactive)

Challenge: Lab note: need GI50 for N#Cc1c(-c2ccccc2)c2c([nH]c1=O)-c1cc([N+](=O)[O-])ccc1CCC2 on EKVX, anyone have it?
Response given: 26.7 µM (inactive)

Challenge: Lab note: need GI50 for O=C(O)c1ccccc1/N=N/c1ccc2oc(=O)c(C(=O)Nc3ccccc3)cc2c1 on EKVX, anyone have it?
Response given: 30.1 µM (inactive)

Challenge: Lab note: need GI50 for CCc1c(Cc2[nH]c(Cc3[nH]c(C=O)c(C)c3CC)c(CC)c2CC)[nH]c(C=O)c1C on EKVX, anyone have it?
Response given: > 100 µM (inactive)

---

# System: DU-145
# Assay protocol: NCI tumour cell line growth inhibition, 48 h
Active and inactive are the calls of the source. Rule as the data show it: active = GI50 up to about 1.1 µM and inactive = higher.
Measured GI50 of individual entries

// solved cases for GI50 follow
Compound: COc1ccc(NC2Oc3cc4c(cc3C(c3cc(OC)c(O)c(OC)c3)C2C)OCO4)cc1 (configuration not stated)
Meas value: 7.4 µM (inactive)
//
Compound: O=C1OC(c2ccccc2Br)=N/C1=C/c1ccccc1
Meas value: > 100 µM (inactive)
//
Compound: Nc1n[nH]c2c(C(=O)Nc3ccc(Cl)cc3)c(N)n(N)c(=O)c12
Meas value: > 100 µM (inactive)
//
Compound: CN1N=C(c2ccncc2)OC1c1ccc(Cl)cc1Cl (configuration not stated)
Meas value: > 100 µM (inactive)
//
Compound: CC(=O)OCC1OC(Nc2ccc3nc(C)n(-c4ccccc4)c(=O)c3c2)C(OC(C)=O)C(OC(C)=O)C1OC(C)=O (configuration not stated)
Meas value: > 50 µM (inactive)

Challenge: Given the compound CN=C(n1ccnc1)n1ccnc1 , what is its reported GI50?
Response given: > 100 µM (inactive)

Challenge: Given the compound c1csc(-c2cc(-c3cccs3)c(-c3cccs3)s2)c1 , what is its reported GI50?
Response given: > 100 µM (inactive)

Challenge: Given the compound O=C(O)c1cc(/N=N/c2ccc([N+](=O)[O-])cc2)ccc1O , what is its reported GI50?
Response given: 38.3 µM (inactive)

Challenge: Given the compound O=C(c1c(F)c(F)c(F)c(F)c1F)n1c(=S)n(C(=O)c2c(F)c(F)c(F)c(F)c2F)c2ccccc21 , what is its reported GI50?
Response given: 80.5 µM (inactive)

Challenge: Given the compound CCOC(=O)C1C2CCC1CC(=NNc1ccc([N+](=O)[O-])cc1[N+](=O)[O-])C2 (configuration not stated) , what is its reported GI50?
Response given: > 50 µM (inactive)

Challenge: Given the compound Clc1ccc(OCc2nnc3sc(SSc4nn5c(COc6ccc(Cl)cc6)nnc5s4)nn23)cc1 , what is its reported GI50?
Response given: > 100 µM (inactive)

Challenge: Given the compound C=C(Br)CN(CC(=C)Br)C(C)=O , what is its reported GI50?
Response given: > 100 µM (inactive)

Challenge: Given the compound Cc1ccc(Cl)c2c(=O)c3ccc([N+](=O)[O-])cc3sc12 , what is its reported GI50?
Response given: > 100 µM (inactive)

Challenge: Given the compound O=C1C(=O)c2c(oc(=O)c3ccccc23)-c2ccccc21 , what is its reported GI50?
Response given: > 25 µM (inactive)

---

Measured GI50 of individual entries
# Tested on: SK-OV-3
# Assay protocol: NCI tumour cell line growth inhibition, 48 h
Activity calls are given as the source filed them. No stated cut-off is given here; in the data, active = GI50 up to about 1.1 µM and inactive = higher.

// solved cases for GI50 follow
Compound: CCCN1C(=O)CCC2=C1CCc1c2ccc(Cl)c1Cl
GI50: 24.3 µM (inactive)
--
Compound: CCOc1ccc2c(c1)[n+]([O-])c(-c1nc3ccccc3s1)c(N)[n+]2[O-]
GI50: > 100 µM (inactive)
--
Compound: COc1ccc2cc(CN3CCC(C4CCN(Cc5ccc6cc(OC)ccc6c5)CC4)CC3)ccc2c1
GI50: 26.3 µM (inactive)
--
Compound: Cc1ccc(S(=O)(=O)N(c2ccccc2F)C2CCCCC2O)cc1 (stereo unspecified)
GI50: 22.3 µM (inactive)
--
Compound: CCCc1[nH]c2ccccc2c1-c1c(CCC)[nH]c2ccccc12
GI50: 24.1 µM (inactive)

Challenge: Given the compound N#CC12C(=O)N3C(=NC(c4ccccc4)NC3c3ccccc3)C1(C#N)C(c1ccccc1)NC1=C2CCC1 (stereo unspecified) , what is its reported GI50?
Response given: > 100 µM (inactive)

---

# Test system: SF-268
# Assay protocol: NCI tumour cell line growth inhibition, 48 h
The source made the active and inactive calls. No stated cut-off is given here; in the data, active = GI50 up to about 1.1 µM and inactive = higher.
Measured GI50 of individual entries

Compound: Oc1cc(Cl)cc2cc(Br)cnc12
GI50: 1.59 µM (inactive)
//
Compound: CCOC(=O)/C(=C/c1ccc(N(C)C)cc1)N(CC)CC
GI50: 76.6 µM (inactive)
//
Compound: N#Cc1c(-c2ccccc2)c2c([nH]c1=O)-c1cc([N+](=O)[O-])ccc1CCC2
GI50: 26.6 µM (inactive)
//
Compound: CC(C)(O)/C=C/C(=O)[C@](C)(O)[C@H]1[C@H](O)C[C@@]2(C)[C@@H]3CC=C4[C@@H](C[C@H](O)C(=O)C4(C)C)[C@]3(C)C(=O)C[C@]12C [CUCURBITACIN D]
GI50: 0.104 µM (active)

Challenge: Given the compound Cc1cccc(C(=O)O)c1CC1NCCC2c3ccccc3NC12 (stereo unspecified) , what is its reported GI50?
Response given: > 100 µM (inactive)

Challenge: Given the compound CS/C=C\C(=O)O[C@H]1C[C@@H]2[C@@H](O)c3occ(C)c3C[C@]2(C)[C@@H](C)C1 , what is its reported GI50?
Response given: 28 µM (inactive)

Challenge: Given the compound C=C(Br)CN(CC(=C)Br)C(C)=O , what is its reported GI50?
Response given: > 100 µM (inactive)

Challenge: Given the compound COc1cccc(C2c3cc4c(cc3OC(NNS(=O)(=O)c3ccc(C)cc3)C2C)OCO4)c1OC (stereo unspecified) , what is its reported GI50?
Response given: 4.3 µM (inactive)

Challenge: Given the compound COC(=O)c1ccc(/C=C/S(=O)(=O)c2ccccc2)cc1 , what is its reported GI50?
Response given: > 100 µM (inactive)

Challenge: Given the compound COc1ccc(C2c3cc4c(cc3OC(N3CCOCC3)C2C)OCO4)cc1OC (stereo unspecified) , what is its reported GI50?
Response given: 13.9 µM (inactive)

---

# System: PC-3
# Assay protocol: NCI tumour cell line growth inhibition, 48 h
Active and inactive are the calls of the source. Rule as the data show it: active = GI50 up to about 1.1 µM and inactive = higher.
Use one of these outcomes when replying: yes = active, no = inactive

Compound: Cc1ccc(/C=N/Nc2nc3ccccc3s2)s1
Assigned class: no

Compound: N#CC12C(=O)N3C(=NC(c4ccccc4)NC3c3ccccc3)C1(C#N)C(c1ccccc1)NC1=C2CCC1 (configuration not stated)
Assigned class: no

Compound: CCOC(=O)C1C2CCC1CC(=NNc1ccc([N+](=O)[O-])cc1[N+](=O)[O-])C2 (configuration not stated)
Assigned class: no

Challenge: Recorded test outcome, item CC(C)N(C(=O)C12C3(C(=O)OC(C)(C)C)C4C5(C#N)C3C1(C(=O)OC(C)(C)C)C5C42C(=O)OC(C)(C)C)C(C)C (configuration not stated)
Response given: no

Challenge: Recorded test outcome, item COCCCNC(=O)C1=C(C)NC(C)=C(C(=O)NCCCOC)C1
Response given: no
